EXPERIMENT DESCRIPTION: In vivo pharmacokinetics study, mouse
APPLIED CONDITIONS: male, BALB/c nude, plasma, iv, 1.75 mg/kg, IV 1.75 mg/kg, 24 h, individual mice, read-out: Plasma concentration
Experimental: 4–6 weeks old female BALB/c nude mice were used for most experiments, with the exception of 6–8 weeks old female C57BL/6 mice were used for B16F10 experiments, and 6–8 weeks old male BALB/c nude mice and SD rats were used for pharmacokinetic experiments. […] Mouse body weight and tumor sizes were measured every 3 days. […] Ascitic volume and tumor weight were measured by an electronic balance. […] Concentration of drugs in plasma, lung and tumor tissues were measured for the indicated time. […]
PARAMETER: concentration at 24 h (ng/mL)
API: value field is a number in ng/mL; no unit string.

Ask: Entry under review: Cc1nnn(C)c1-c1cnc2c3c4cnn(C)c4ccc3n([C@H](c3ccccc3)C3CCOCC3)c2c1 . Reported concentration at 24 h?
Result: 0.937

###

EXPERIMENT DESCRIPTION: in vitro
APPLIED CONDITIONS: mouse, microsomes, pH 7.4
PARAMETER: microsomal CLint at 1 µM (µL/min/mg)
API: value field is a number in µL/min/mg; no unit string.

Ask: Entry under review: Cc1nnn(C)c1-c1cnc2c3c4cnn(C)c4ccc3n([C@H](c3ccccc3)C3CCOCC3)c2c1 [NHWD-870] . Reported microsomal CLint at 1 µM?
Result: 35.2

###

EXPERIMENT DESCRIPTION: In vivo pharmacokinetics study, mouse
APPLIED CONDITIONS: male, BALB/c nude, plasma, iv, 1.75 mg/kg, IV 1.75 mg/kg, 0.25 h, mean of 3 mice, read-out: Plasma concentration, Mean
Experimental: 4–6 weeks old female BALB/c nude mice were used for most experiments, with the exception of 6–8 weeks old female C57BL/6 mice were used for B16F10 experiments, and 6–8 weeks old male BALB/c nude mice and SD rats were used for pharmacokinetic experiments. […] Mouse body weight and tumor sizes were measured every 3 days. […] Ascitic volume and tumor weight were measured by an electronic balance. […] Concentration of drugs in plasma, lung and tumor tissues were measured for the indicated time. […]
PARAMETER: concentration at 0.25 h (ng/mL)
API: value field is a number in ng/mL; no unit string.

Ask: Entry under review: Cc1nnn(C)c1-c1cnc2c3c4cnn(C)c4ccc3n([C@H](c3ccccc3)C3CCOCC3)c2c1 . Reported concentration at 0.25 h?
Result: 428

###

EXPERIMENT DESCRIPTION: In vivo pharmacokinetics study, mouse
APPLIED CONDITIONS: male, BALB/c nude, plasma, iv, 1.75 mg/kg, IV 1.75 mg/kg, 5 min, individual mice, read-out: Plasma concentration
PARAMETER: concentration at 5 min (ng/mL)
API: value field is a number in ng/mL; no unit string.

Ask: Entry under review: Cc1nnn(C)c1-c1cnc2c3c4cnn(C)c4ccc3n([C@H](c3ccccc3)C3CCOCC3)c2c1 . Reported concentration at 5 min?
Result: 614

###

EXPERIMENT DESCRIPTION: In vivo pharmacokinetics study, rat
Parameters: species or system SD rat
APPLIED CONDITIONS: male, SD, plasma, po, 5 mg/kg, PO, 0.25 h, individual animals, LLOQ 1.00 ng/mL, read-out: Plasma Conc.
PARAMETER: concentration at 0.25 h (ng/mL)
API: value field is a number in ng/mL; no unit string.

Ask: Entry under review: Cc1nnn(C)c1-c1cnc2c3c4cnn(C)c4ccc3n([C@H](c3ccccc3)C3CCOCC3)c2c1 [NHWD-870] . Reported concentration at 0.25 h?
Result: 18.2

###

EXPERIMENT DESCRIPTION: In vivo pharmacokinetics study, rat
Parameters: species or system SD rat
APPLIED CONDITIONS: male, SD, plasma, po, 5 mg/kg, PO, 4 h, individual animals, LLOQ 1.00 ng/mL, read-out: Plasma Conc.
PARAMETER: concentration at 4 h (ng/mL)
API: value field is a number in ng/mL; no unit string.

Ask: Entry under review: Cc1nnn(C)c1-c1cnc2c3c4cnn(C)c4ccc3n([C@H](c3ccccc3)C3CCOCC3)c2c1 . Reported concentration at 4 h?
Result: 45.5

###

EXPERIMENT DESCRIPTION: In vivo pharmacokinetics study, mouse
APPLIED CONDITIONS: male, BALB/c nude, plasma, PO 5 mg/kg
PARAMETER: AUC(0-t) (ng·h/mL)
API: value field is a number in ng·h/mL; no unit string.

Ask: Entry under review: Cc1nnn(C)c1-c1cnc2c3c4cnn(C)c4ccc3n([C@H](c3ccccc3)C3CCOCC3)c2c1 . Reported AUC(0-t)?
Result: 1950

###

EXPERIMENT DESCRIPTION: Concentration in lungs and tumors of H526 xenograft model
Format: in vivo, mouse
APPLIED CONDITIONS: female, BALB/c nude, mouse, lung, oral, 1.5 mg/kg, Group 3, 1.5 mg/kg QD, 8h, mean; read-out: Mean Concentration in Lung
PARAMETER: concentration at 8 h
Remember to follow the number with its unit.

Ask: Entry under review: Cc1nnn(C)c1-c1cnc2c3c4cnn(C)c4ccc3n([C@H](c3ccccc3)C3CCOCC3)c2c1 . Reported concentration at 8 h?
Result: 72.7 ng/g

###

EXPERIMENT DESCRIPTION: Concentration in lungs and tumors of H526 xenograft model
Format: in vivo, mouse
APPLIED CONDITIONS: female, BALB/c nude, mouse, tumor, oral, 3 mg/kg, Group 2, 3 mg/kg QD, 8h, mean; read-out: Mean Concentration in Tumor
PARAMETER: concentration at 8 h (ng/g)
API: value field is a number in ng/g; no unit string.

Ask: Entry under review: Cc1nnn(C)c1-c1cnc2c3c4cnn(C)c4ccc3n([C@H](c3ccccc3)C3CCOCC3)c2c1 [NHWD-870] . Reported concentration at 8 h?
Result: 270

###

EXPERIMENT DESCRIPTION: Concentration in lungs and tumors of H526 xenograft model
Type: in vivo, mouse
APPLIED CONDITIONS: female, BALB/c nude, mouse, tumor homogenate, oral, 1.5 mg/kg, Group 3, 1.5 mg/kg QD, 24h, individual animals; read-out: Analyte Concentration in Tumor Homogenate
PARAMETER: concentration at 24 h (ng/mL)
API: value field is a number in ng/mL; no unit string.

Ask: Entry under review: Cc1nnn(C)c1-c1cnc2c3c4cnn(C)c4ccc3n([C@H](c3ccccc3)C3CCOCC3)c2c1 [NHWD-870] . Reported concentration at 24 h?
Result: 2.06

###

EXPERIMENT DESCRIPTION: In vivo pharmacokinetics study, rat
Parameters: species or system SD rat
APPLIED CONDITIONS: male, SD, plasma, iv, 1 mg/kg, IV bolus, 4 h, individual animals, LLOQ 1.00 ng/mL, read-out: Plasma Conc.
PARAMETER: concentration at 4 h (ng/mL)
API: value field is a number in ng/mL; no unit string.

Ask: Entry under review: Cc1nnn(C)c1-c1cnc2c3c4cnn(C)c4ccc3n([C@H](c3ccccc3)C3CCOCC3)c2c1 . Reported concentration at 4 h?
Result: 8.15

###

EXPERIMENT DESCRIPTION: Metabolic stability assay, mouse liver microsomes
APPLIED CONDITIONS: mouse, liver microsomes, pH 7.4
PARAMETER: half-life at 1 µM (min)
API: value field is a number in min; no unit string.

Ask: Entry under review: Cc1nnn(C)c1-c1cnc2c3c4cnn(C)c4ccc3n([C@H](c3ccccc3)C3CCOCC3)c2c1 . Reported half-life at 1 µM?
Result: 39.4

###

EXPERIMENT DESCRIPTION: MTS assay of non-cancerous cells
Format: cell-based, human
APPLIED CONDITIONS: human, HaCAT cells (immortalized human keratinocytes), 72h; 32 nM; read-out: Cell viability (Sup Fig.4b, 72h)
PARAMETER: viability at 72 h, 0.032 µM (%)
API: value field is a number in %; no unit string.

Ask: Entry under review: Cc1nnn(C)c1-c1cnc2c3c4cnn(C)c4ccc3n([C@H](c3ccccc3)C3CCOCC3)c2c1 . Reported viability at 72 h, 0.032 µM?
Result: 86.9

###

EXPERIMENT DESCRIPTION: In vivo pharmacokinetics study, mouse
APPLIED CONDITIONS: male, BALB/c nude, plasma, IV 1.75 mg/kg
PARAMETER: clearance (mL/min/kg)
API: value field is a number in mL/min/kg; no unit string.

Ask: Entry under review: Cc1nnn(C)c1-c1cnc2c3c4cnn(C)c4ccc3n([C@H](c3ccccc3)C3CCOCC3)c2c1 [NHWD-870] . Reported clearance?
Result: 35

###

EXPERIMENT DESCRIPTION: In vivo pharmacokinetics study, rat
Set-up: species or system SD rat
APPLIED CONDITIONS: male, SD, plasma, po, 5 mg/kg, PO 5 mg/kg
PARAMETER: half-life (h)
API: value field is a number in h; no unit string.

Ask: Entry under review: Cc1nnn(C)c1-c1cnc2c3c4cnn(C)c4ccc3n([C@H](c3ccccc3)C3CCOCC3)c2c1 . Reported half-life?
Result: 1.48

Reference source for all entries: paper PMC7156724
